Listing of entries alongside the reported Relative animal weights.
# Type: in vivo, hairless mice
# Experimental Context: Day 5; 11 μmol of epothilone/kg of body weight i.v. (formulations: plus 100 μmol of Gd/kg); day 0 (about 30-35 g) normalized to 1
Endpoint: Relative animal weights

INSERT INTO results (compound, endpoint, test_value) VALUES
  ('C#CCC[C@H]1C(=O)C(C)(C)[C@@H](O)CC(=O)O[C@H](/C(C)=C/c2ccccn2)C/C=C(/C)CCC[C@H](C)[C@@H]1O', 'Relative animal weights', 0.93),
  ('C#CC[C@H]1C(=O)C(C)(C)[C@@H](O)CC(=O)O[C@H](/C(F)=C/c2coc(C)n2)C/C=C(/C)CCC[C@H](C)[C@@H]1O', 'Relative animal weights', 0.94),
  ('CC[C@H]1C(=O)C(C)(C)[C@@H](O)CC(=O)O[C@H](/C(F)=C/c2ccccn2)C/C=C(/C)CCC[C@H](C)[C@@H]1O', 'Relative animal weights', 0.94),
  ('C#CC[C@H]1C(=O)C(C)(C)[C@@H](O)CC(=O)O[C@H](/C(F)=C/c2csc(C)n2)C/C=C(/C)CCC[C@H](C)[C@@H]1O', 'Relative animal weights', 0.93),
  ('C=CC[C@H]1C(=O)C(C)(C)[C@@H](O)CC(=O)O[C@H](c2ccc3sc(C)nc3c2)C[C@@H]2O[C@]2(C)CCC[C@H](C)[C@@H]1O', 'Relative animal weights', 0.94);

Origin of measurements: patent US20060257322A1
